Reported pKd values are given for each entry in this list.
Biological target: MAGI2_4, Q86UL8
Sequence (Q86UL8 772-865): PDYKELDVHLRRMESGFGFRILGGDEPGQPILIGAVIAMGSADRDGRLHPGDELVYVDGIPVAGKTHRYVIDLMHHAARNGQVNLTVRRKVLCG
Assay: holdup assay
Parameters: key: below the threshold = too weak to quantify, mostly under pKd 3.1 to 4
Conditions: plain residues with an end cap or a label only (N-terminal biotin on a linker: ado-ado)

Please review the entries below; each comes with its answer.
{"binder": "DSEEELPTRL [GRK6, P43250]", "pKd": 3.47}
{"binder": "FHSIKQSTAV [CRHR1, P34998]", "pKd": 4.42}

Request: Recorded pKd for HYPASPDSWV [CTNND2, Q9UQB3] , please?
Result: 4.34
